Values from the supplement of paper PMC9170038

system: MS2 coat protein; assay: apparent KD of MS2 coat protein; designed switch direction (-1 OFF switch, 1 ON switch): -1; higher = weaker reporter binding; settings: input ligand: microRNA oligo, concentration not stated
measured.attribute: apparent KD of MS2 coat protein (nM)

[
  {
    "sequence.entry": "GGUACUCAAAGAGUACCAAUACGAACAUGAGGAUCACCCAUGUAGGAUAUGCUACUCAAAGAGUAGCAGAAGGACAUGUACCUU [Far Half Aptamer v6] (Eterna round: R96, puzzle: Exclusion NG 3)",
    "recorded.measurement": 19.7
  },
  {
    "sequence.entry": "CAUUAUUAUCGAGGAUAUCCUAUUGAAAUUCUAGGAGAAGGCGGACUCAACAUGAGGAUCACCCAUGUGGGACGGAUGCUAGGG [Ex NG1 #29] (Eterna round: R96, puzzle: Exclusion NG 1)",
    "recorded.measurement": 19.6
  },
  {
    "sequence.entry": "GACAGGCAGGCAGGAUAUGCCCGUGUGGAUGGUGUAGAAGGGCUAGCGGGUCACUUGAGGAUCACCCAAGUGGAGGGUGGCCUA [Mutated MS2 EX1.28] (Eterna round: R96, puzzle: Exclusion NG 1)",
    "recorded.measurement": 31.2
  },
  {
    "sequence.entry": "GCACGGAGUGUAGGAUAUUAGUGCGAUUAGCACUGAGAAGGACAUGAGGAUCACCCAUGUGCUACCUCAAUUAGCCUUCCGUGC [Eli exng1 - 035] (Eterna round: R96, puzzle: Exclusion NG 1)",
    "recorded.measurement": 16.5
  },
  {
    "sequence.entry": "AAAGAAAAGAAAGGAUAUAGCGCAGAACCGCAGCUAGAAGGUUCGGUGGGUAUCCUGUAACAUGAGGAUCACCCAUGUAAAGAG [Tire] (Eterna round: R96, puzzle: Exclusion NG 1)",
    "recorded.measurement": 48.7
  },
  {
    "sequence.entry": "AAAUAAACAAGCAACUCGAACAUGAGGAUCACCCAUGUAAAGGGUGAAUCGUCCACCCAAAAAAAAAAUAAAAAAAA [Mat - Sensor v2 - Eli mod - 132] (Eterna round: R96, puzzle: Sensor v2, turn-off variant)",
    "recorded.measurement": 116
  },
  {
    "sequence.entry": "AGCUGGAGAGGAUAUACGUAGGAAAAAAAAGUCUGAUCACUACAUGAGGAUCACCCAUGUAGAAGGCUCUGGCA [Ex2 Design 162: Sub-opt 26] (Eterna round: R96, puzzle: Exclusion 2)",
    "recorded.measurement": 16.5
  },
  {
    "sequence.entry": "AGUACUAACACGUCGGUGUUAGUACAAUAAGCUUGUGAAACAUGAGGAUCACCCAUGUCCUCAUAAGCUCGUCUUAU [salish99_TOv2_r3_080] (Eterna round: R96, puzzle: Sensor v3, turn-off variant 2)",
    "recorded.measurement": 492
  },
  {
    "sequence.entry": "CAUUAUUAUCGAGGAUAUCCUAUUGAAAUUCUGGGAGAAGGCGGACUCAACAUGAGGAUCACCCAUGUGAGACGGAUGCUAGGG [Ex NG1 #27] (Eterna round: R96, puzzle: Exclusion NG 1)",
    "recorded.measurement": 15
  },
  {
    "sequence.entry": "AGCGCCAUCGUGAGAUGGCGUAUUACAUGAGGAUCACCCAUGUAGGAUAUCGAUUGCUUUGCAGUCGAGAAGGACAUGUUCUUU [JL ENG3 3.80 Mod D] (Eterna round: R96, puzzle: Exclusion NG 3)",
    "recorded.measurement": 19.3
  },
  {
    "sequence.entry": "GGAAGAGAGUUAGGAUAUAUAAGAAGAAUGUGGGUAGAAGGAACGAAACAUGAGGAUCACCCAUGUCCCAUGUUGAGGAGGAGG (Eterna round: R96, puzzle: Exclusion NG 1)",
    "recorded.measurement": 349
  },
  {
    "sequence.entry": "GGUAGAGUGGUAGGAUAUCCGUCUGUUUCAGUCGGAGAAGGACCACAGUCACUGGGUCCAAAUAUGGGUGACCAUGUAUCUACC [pwkr exNG1 F6.3] (Eterna round: R96, puzzle: Exclusion NG 1)",
    "recorded.measurement": 358
  },
  {
    "sequence.entry": "AUACACUAGCGAGGAUAUUGGAAAGGAAGUGUACAAGAAGGCGCCCGUGGAAGGGUGAAACAUGAGGAUCACCCAUGUGAAUAA [PowerStrip EXNG 1.29] (Eterna round: R96, puzzle: Exclusion NG 1)",
    "recorded.measurement": 96.2
  },
  {
    "sequence.entry": "AUGGGUCCUCACGGAGCUACAUGAGGAUCACCCAUGUGGAUUGAGGAUAUCGACUGCCGACGGCUCGAGAAGGCAGUUUACUGU [Ex NG3 #95] (Eterna round: R96, puzzle: Exclusion NG 3)",
    "recorded.measurement": 14.3
  },
  {
    "sequence.entry": "UUCUCGACAUGAGGAUCACCCAUGUAGUGGGAGAAAACUGGUUAGGAUAUAAAAUAGUACACCGUUUAGAAGGGACCUAUCCUC [Eternabot solution 4] (Eterna round: R96, puzzle: Exclusion NG 3)",
    "recorded.measurement": 45.7
  },
  {
    "sequence.entry": "GUCGUGCGGCAGUGCUGUACGAGUACAUGAGGAUCACCCAUGUAGGAUAUGGUUCGUUUUGCGUGCUAGAAGGGCGUGCGUUUU [Excl-NG3-LRO18] (Eterna round: R96, puzzle: Exclusion NG 3)",
    "recorded.measurement": 15.8
  },
  {
    "sequence.entry": "AGCGCCAUCGUGAGAUGGCGUAUUACAUGAGGAUCACCCAUGUAGGAUAUCGAUUGCUUUGCAGUCGAGAAGGGCAUGUCCUAG [JL ENG3 3.80 Mod H] (Eterna round: R96, puzzle: Exclusion NG 3)",
    "recorded.measurement": 25
  },
  {
    "sequence.entry": "UUAUUAUAUGUAGGAUAUGCGUAUUAUUGUUAUGCAGAAGGACAUGAGGAUCACCCAUGUAUAUUAUUGUUGUAUAUUAUAUAU [Title] (Eterna round: R96, puzzle: Exclusion NG 1)",
    "recorded.measurement": 20.7
  }
]
